Data provenance is patent US9957297B2.

# target system: FPR1 (Homo sapiens, UniProt P21462)
# Sequence (P21462 whole entry): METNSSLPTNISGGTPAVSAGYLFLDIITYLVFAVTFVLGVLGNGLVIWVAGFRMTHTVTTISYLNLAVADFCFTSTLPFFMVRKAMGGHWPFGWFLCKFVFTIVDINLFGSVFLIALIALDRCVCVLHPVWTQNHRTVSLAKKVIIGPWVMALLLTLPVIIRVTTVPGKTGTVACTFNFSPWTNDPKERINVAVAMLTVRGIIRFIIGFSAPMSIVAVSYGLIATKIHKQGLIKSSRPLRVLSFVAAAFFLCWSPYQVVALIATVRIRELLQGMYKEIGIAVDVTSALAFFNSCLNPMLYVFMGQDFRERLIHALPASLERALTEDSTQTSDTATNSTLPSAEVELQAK
# test method notes: FPR1 β-arrestin recruitment assay (PathHunter CHO-FPR1, antagonistic mode)
# measurement context: CHO FPR1 β-arrestin cells; antagonistic assay vs reference agonist fMLF at its EC80; 60 min preincubation
# Experimental: 2.2 FPR1 β-Arrestin Recruitment Assay The PathHunter CHO—FPR1 (DiscoverX) assay was performed according to the manufacturer's protocol. […] For antagonistic assay, 5 μl of compound solution or buffer was added to the cells with a final DMSO concentration of 0.5% (v/v). […] Reaction was developed for 20 min at room temperature and chemiluminescence was measured with a Victor2V (Perkin Elmer) luminescence reader.
Where a SMILES comes first, the peptide text is derived from it. Bridges are numbered along the chain shown (N, C = ends). [ ]: non-standard residue; d: D form.
measured parameter: pIC50
Formally, pIC50 is defined as -log10 of the concentration c, with c in mol/L.

Req: Can you look up the measured pIC50 of CC[C@H](C)[C@@H]1NC(=O)[C@H]([C@@H](C)O)NC(=O)[C@H](Cc2c[nH]c3ccccc23)NC(=O)[C@H]2CCCN2C(=O)CNC(=O)[C@H](Cc2c[nH]c3ccccc23)NC(=O)[C@@H]2CSSC[C@H](NC1=O)C(=O)N[C@@H](Cc1ccc(O)cc1)C(=O)N[C@@H](CCC(=O)O)C(=O)N[C@@H](CCCCN)C(=O)N[C@H](CCCCN)C(=O)N1CCC[C@H]1C(=O)N[C@@H](Cc1ccc(O)cc1)C(=O)N[C@@H](Cc1c[nH]cn1)C(=O)N[C@@H](CCCCN)C(=O)N2 [compound 43] (cyclo(YHKCWG[dP]WTICYEK[dK]P); disulfide 4-11) for me?
Resp: 6.90
